src = paper PMC1888804

target: α subunit of Escherichia coli DNA polymerase III holoenzyme (E. coli, UniProt P10443 1-1160); assay: SPR
Sequence (P10443 whole entry): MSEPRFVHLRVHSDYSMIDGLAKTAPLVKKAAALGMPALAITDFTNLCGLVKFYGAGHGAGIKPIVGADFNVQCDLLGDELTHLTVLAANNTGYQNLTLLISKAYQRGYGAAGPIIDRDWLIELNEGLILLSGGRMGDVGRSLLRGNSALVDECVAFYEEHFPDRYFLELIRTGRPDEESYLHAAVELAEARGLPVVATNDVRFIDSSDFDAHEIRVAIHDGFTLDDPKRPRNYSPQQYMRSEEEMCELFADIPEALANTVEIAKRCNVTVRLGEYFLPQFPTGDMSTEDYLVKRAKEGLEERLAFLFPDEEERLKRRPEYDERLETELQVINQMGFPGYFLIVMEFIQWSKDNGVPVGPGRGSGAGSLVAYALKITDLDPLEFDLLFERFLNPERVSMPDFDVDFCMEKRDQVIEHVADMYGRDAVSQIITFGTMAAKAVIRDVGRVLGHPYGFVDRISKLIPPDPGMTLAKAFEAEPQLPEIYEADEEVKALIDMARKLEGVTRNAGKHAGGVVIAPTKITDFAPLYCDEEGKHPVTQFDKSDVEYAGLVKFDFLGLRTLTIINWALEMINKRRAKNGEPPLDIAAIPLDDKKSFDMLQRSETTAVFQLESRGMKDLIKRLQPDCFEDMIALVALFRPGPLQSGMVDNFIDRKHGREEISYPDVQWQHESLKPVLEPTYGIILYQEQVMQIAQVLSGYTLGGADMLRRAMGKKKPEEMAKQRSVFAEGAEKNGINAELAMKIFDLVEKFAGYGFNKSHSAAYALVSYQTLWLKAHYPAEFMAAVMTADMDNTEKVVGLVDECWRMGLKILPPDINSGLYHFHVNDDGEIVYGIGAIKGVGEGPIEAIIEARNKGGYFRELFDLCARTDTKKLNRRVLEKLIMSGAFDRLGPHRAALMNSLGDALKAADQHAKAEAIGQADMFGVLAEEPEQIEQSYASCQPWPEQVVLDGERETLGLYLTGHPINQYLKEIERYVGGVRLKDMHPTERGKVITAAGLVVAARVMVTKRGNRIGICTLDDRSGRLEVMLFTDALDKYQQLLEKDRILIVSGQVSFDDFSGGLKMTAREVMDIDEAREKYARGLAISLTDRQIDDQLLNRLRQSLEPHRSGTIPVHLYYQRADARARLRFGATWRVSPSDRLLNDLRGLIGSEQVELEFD
EXPERIMENTAL ENDPOINT: Kd (nM)

AQARESIIADNNIQTLRRFFDAELDEESIRPI (peptide, UniProt P06710 612-643, looked up) [τCpep32 (synthetic 32-mer peptide of the C-terminus of τ)]	3800
τC16[I618T] (domain or fragment, E. coli) MKALEHEKTPELAAKLAAEAIERDPWAAQVSQLSLPKLVEQVALNAWKEESDNAVCLHLRSSQRHLNNRGAQQKLAEALSMLKGSTVELTIVEDDNPAVRTPLEWRQAIYEEKLAQARESTIADNNIQTLRRFFDAELDEESIRPI	0.98

(I) τC16[L627P] (domain or fragment, E. coli) MKALEHEKTPELAAKLAAEAIERDPWAAQVSQLSLPKLVEQVALNAWKEESDNAVCLHLRSSQRHLNNRGAQQKLAEALSMLKGSTVELTIVEDDNPAVRTPLEWRQAIYEEKLAQARESIIADNNIQTPRRFFDAELDEESIRPI
(II) τC16[S617P] (domain or fragment, E. coli) MKALEHEKTPELAAKLAAEAIERDPWAAQVSQLSLPKLVEQVALNAWKEESDNAVCLHLRSSQRHLNNRGAQQKLAEALSMLKGSTVELTIVEDDNPAVRTPLEWRQAIYEEKLAQAREPIIADNNIQTLRRFFDAELDEESIRPI
(III) τC16[L635P] (domain or fragment, E. coli) MKALEHEKTPELAAKLAAEAIERDPWAAQVSQLSLPKLVEQVALNAWKEESDNAVCLHLRSSQRHLNNRGAQQKLAEALSMLKGSTVELTIVEDDNPAVRTPLEWRQAIYEEKLAQARESIIADNNIQTLRRFFDAEPDEESIRPI
INPUT: Please list these binders in decreasing order of Kd. Output the labels ranked as instructed.
OUTPUT: I, II, III
(I: 1500 nM, II: 160 nM, III: 2.4 nM)
